- Condition description: pH 2.7
Marks after values point to notes of the source that are not given here.
I'd appreciate it if you could supply LogP values for the items below.

Some molecules with recorded LogP:
- Molecule: "CCCCC/C=C/c1csc(CO/N=C(/c2ccccc2)c2noc(=O)n2C)n1"
  LogP: "5.23^[a]"
- Molecule: "Cn1oc(=O)nc1/C(=N\\OCc1nc(C(=O)NC(C)(C)C)cs1)c1ccccc1"
  LogP: "2.61^[a]"
- Molecule: "CCCC(C)C(=O)Nc1csc(CO/N=C(/c2ccccc2)c2noc(=O)n2C)n1 (stereo not drawn)"
  LogP: "3.45^[a]"
- Molecule: "Cn1c(/C(=N\\OCc2nc(NC(=O)C3CCc4ccccc4O3)cs2)c2ccccc2)noc1=O (stereo not drawn)"
  LogP: "3.77^[a]"
- Molecule: "NC(=NO)C(=NOCn1ccc(N)n1)c1ccccc1"
  LogP: "0.65^[a]"

Need LogP for each of these molecules.
1. NC(=NO)C(=NOCc1nc(C#CC2CCCCC2)cs1)c1ccccc1
2. Cn1c(/C(=N\OCc2nc(C(=O)NC3CCCCC3)cs2)c2ccccc2)noc1=O
3. C=CCOC(=O)Nc1csc(CO/N=C(/c2ccccc2)c2noc(=O)n2C)n1
4. Cn1c(/C(=N\OCc2nc(C#CCCCc3ccccc3)cs2)c2ccccc2)noc1=O

result:
1: 3.42^[a]; 2: 3.43^[a]; 3: 3.02^[a]; 4: 4.68^[a]
